Experiment: Fraction unbound in human plasma
Type: ADME, cell-free
MEASUREMENT_TYPE: Fu
Number plus unit, in that order.

Sample answers from the record:
CN1CCC(S(=O)(=O)c2c(Cl)ccc(NC(=O)Nc3cccc(F)c3Cl)c2O)CC1 ... 0.13%
CN1CC[C@H](S(=O)(=O)c2c(Cl)ccc(NC(=O)Nc3cccc(Cl)c3Cl)c2O)C1 ... 0.021%
CN1CCC(S(=O)(=O)c2c(Cl)ccc(NC(=O)Nc3cccc(Cl)c3Cl)c2O)CC1 ... 0.1%

# ---- query compound ----
Exercise: Any idea what Fu was measured for CCN1CCC(S(=O)(=O)c2c(Cl)ccc(NC(=O)Nc3cccc(F)c3Cl)c2O)CC1 ?
Solution: 0.036%

###

Molecular target: C-X-C chemokine receptor type 2 (Homo sapiens, UniProt P25025)
Sequence (P25025 whole entry, the tested form may be a part): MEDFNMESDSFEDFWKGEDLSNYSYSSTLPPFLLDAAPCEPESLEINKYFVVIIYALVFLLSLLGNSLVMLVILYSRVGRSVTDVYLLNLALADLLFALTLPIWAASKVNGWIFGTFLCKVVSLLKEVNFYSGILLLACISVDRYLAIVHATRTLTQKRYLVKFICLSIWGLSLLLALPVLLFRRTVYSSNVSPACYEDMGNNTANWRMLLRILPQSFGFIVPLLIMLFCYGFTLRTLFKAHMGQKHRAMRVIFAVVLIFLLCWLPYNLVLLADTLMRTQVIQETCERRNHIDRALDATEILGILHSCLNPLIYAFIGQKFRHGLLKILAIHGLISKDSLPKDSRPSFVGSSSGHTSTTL
Assay: Antagonist activity at human recombinant Gal4-VP16 fused-CXCR2 assessed as inhibition of CXCL1-mediated lactamase reporter gene expression after overnight incubation
pIC50: −log10 of the molar value.
Assign class by pIC50: not lower than 9 means y; lower than 9 means n.

O=C(Nc1ccc(Cl)c(C(=O)N2CCCCC2)c1O)Nc1cccc(F)c1Cl ... y
O=C(Nc1ccc(Cl)c(S(=O)(=O)C2CCCCC2)c1O)Nc1cccc(F)c1Cl ... y
CN1CCC(S(=O)(=O)c2c(Cl)ccc(NC(=O)Nc3cccc(F)c3Cl)c2O)CC1 ... y
CN1CC[C@H](S(=O)(=O)c2c(Cl)ccc(NC(=O)Nc3cccc(F)c3Cl)c2O)C1 ... y
O=C(Nc1ccc(Cl)c(S(=O)(=O)C2CCC2)c1O)Nc1cccc(F)c1Cl ... y

Exercise: Given the entry CN1CCC2(CC1)CC(S(=O)(=O)c1c(Cl)ccc(NC(=O)Nc3cccc(F)c3Cl)c1O)C2 , answer whether its pIC50 meets or surpasses 9.
Solution: n

Exercise: Determine whether measured pIC50 meets or exceeds 9 for CN1CCC[C@H](S(=O)(=O)c2c(Cl)ccc(NC(=O)Nc3cccc(F)c3Cl)c2O)CC1
Solution: y

###

Biological target: C-X-C chemokine receptor type 2 (Homo sapiens)
Test: Antagonist activity at human recombinant Gal4-VP16 fused-CXCR2 assessed as inhibition of CXCL1-mediated lactamase reporter gene expression after overnight incubation
# strict inequality: IC50 < 0.8 nM yields Y, everything else yields N

Exercise: IC50 strictly < 0.8 nM for this molecule? NS(=O)(=O)c1c(Cl)ccc(NC(=O)Nc2cccc(Cl)c2Cl)c1O
Solution: N

###

Molecular target: Cytochrome P450 2C19 (Homo sapiens)
Sequence (P33261 whole entry): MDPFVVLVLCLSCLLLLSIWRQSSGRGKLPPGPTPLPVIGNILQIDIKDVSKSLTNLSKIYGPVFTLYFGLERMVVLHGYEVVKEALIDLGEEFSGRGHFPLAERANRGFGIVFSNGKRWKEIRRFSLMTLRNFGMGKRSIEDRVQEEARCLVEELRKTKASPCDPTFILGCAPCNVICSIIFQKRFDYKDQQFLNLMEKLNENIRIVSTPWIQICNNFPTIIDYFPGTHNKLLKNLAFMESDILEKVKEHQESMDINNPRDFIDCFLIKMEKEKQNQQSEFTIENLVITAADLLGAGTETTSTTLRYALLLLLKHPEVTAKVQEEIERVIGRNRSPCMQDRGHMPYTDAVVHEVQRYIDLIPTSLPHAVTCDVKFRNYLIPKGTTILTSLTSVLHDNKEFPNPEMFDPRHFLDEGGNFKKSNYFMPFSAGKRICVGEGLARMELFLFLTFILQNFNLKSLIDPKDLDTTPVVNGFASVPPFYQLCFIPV
pIC50: −log10 of the molar value.
MEASUREMENT_TYPE: pIC50

CN1CC[C@H](S(=O)(=O)c2c(Cl)ccc(NC(=O)Nc3cccc(Cl)c3Cl)c2O)C1 ... < 5.00

Exercise: What pIC50 appears in the records for this compound with Cytochrome P450 2C19 (Homo sapiens)? CCN1CCC(S(=O)(=O)c2c(Cl)ccc(NC(=O)Nc3cccc(F)c3Cl)c2O)CC1
Solution: < 5.00

###

Some compounds, each annotated with its measured AUC/dose.
System: Mus musculus
Experiment: Dose normalized AUC (0 to infinity) in C57BL/6 mouse at 2 mg/kg, po
Assay type: ADME, organism-based
Conditions: in vivo
Kindly write the number and append the unit.

Please review the following examples before continuing.
CN1CC[C@H](S(=O)(=O)c2c(Cl)ccc(NC(=O)Nc3cccc(Cl)c3Cl)c2O)C1 ... 271 ng·h/mL/mg/kg
CN1CCC(S(=O)(=O)c2c(Cl)ccc(NC(=O)Nc3cccc(Cl)c3Cl)c2O)CC1 ... 299 ng·h/mL/mg/kg

Exercise: Data request, read-out AUC/dose, for CCN1CCC(S(=O)(=O)c2c(Cl)ccc(NC(=O)Nc3cccc(F)c3Cl)c2O)CC1
Solution: 212 ng·h/mL/mg/kg

Exercise: What AUC/dose value was documented for this compound, CN1CCC(S(=O)(=O)c2c(Cl)ccc(NC(=O)Nc3cccc(F)c3Cl)c2O)CC1 ?
Solution: 354 ng·h/mL/mg/kg
